Target: PTPN3, P26045
Sequence (P26045 505-587): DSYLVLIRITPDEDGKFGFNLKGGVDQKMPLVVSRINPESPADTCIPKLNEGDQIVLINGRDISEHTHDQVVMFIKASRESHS
Test protocol: holdup assay
Parameters: key: below the threshold = too weak to quantify, mostly under pKd 3.1 to 4
Condition summary: plain residues with an end cap or a label only (N-terminal biotin on a linker: ado-ado)
Property name: pKd
Give bare numbers.

Worked set:
>>> meas_value("ARGPPRESEV [FAM110D, Q8TAY7]")
4.94
>>> meas_value("GEDRSPPTAL [MKNK1, Q9BUB5]")
4.06
>>> meas_value("NIAESLESLV [PTPRZ1, P23471]")
4.64
>>> meas_value("ARESQKVSHV [FAM110B, Q8TC76]")
4.51

# per-item lookup of pKd; items listed below
1. DTKNYKQTSV [CRIPT, Q9P021]
2. KSRVAFFEEL [NF2, P35240;P35240-1]

Key:
1. 5.07
2. 4.22
